Method: Human HepG2 cell viability assay in 384 well format
Assay type: toxicity, cell-based
Parameters: dose 125 nL, time 70.5 hour; concentration not given beside the values
Condition Context: HepG2 cells, read-out: Inhibition
Measured cytotoxicity at 70.5 h accompanies every entry in the list below.
Report as a plain number; the unit % is understood.

Example entries begin here.
INSERT INTO results (compound, measured_number) VALUES
  ('NCC1Cc2cc(-c3cnccn3)cc(Cl)c2O1 (stereo not drawn)', 0.342),
  ('CCOc1ncccc1C(=O)N1CCCC(c2nncn2C)C1 (stereo not drawn)', -3.42),
  ('Cc1cc(O)c(OCC(=O)Nc2nccs2)cn1', -21.7),
  ('CC(C)N1CCc2c(CNC(=O)c3nccn3C)cncc2C1', -4.9),
  ('CCCC(=O)N(C)c1cccc2ncccc12', -1.87),
  ('Cc1ccc(CN(Cc2ccccn2)C(=O)C2CCCCCN2C)s1 (stereo not drawn)', 27.3);

Asked: Please look up its cytotoxicity at 70.5 h: CN(C)c1nc(-c2ccncc2)nc2c1CCN(C(=O)[C@H](N)CO)C2
Given back: -6.08

Asked: Please give the result for CCc1nnsc1C(=O)N1CCCN(Cc2ccccc2)CC1 too.
Given back: -8.56

Asked: Please give the result for Cc1nc(C2CCCN(C(=O)c3cc(C(C)(C)C)on3)C2)no1 (stereo not drawn) too.
Given back: -1.93

Asked: Please give the result for CNC(=O)N1CCc2cc(C(=O)NCC3CC3)c(NC(C)C)nc2CC1 too.
Given back: -7.34

Asked: Please give the result for CN(c1ccc2ccccc2c1)S(=O)(=O)c1cc(C(=O)O)cs1 too.
Given back: -8.18

Asked: Please give the result for CC1(C)COCCN1C(=O)c1ccc(Cn2cncn2)cc1 too.
Given back: -9.35

Asked: Please give the result for CN(C)C(=O)CO[C@H]1CN(Cc2cccc(F)c2)[C@@H]2CCCO[C@H]12 too.
Given back: -0.497
